- Method: Toxicity against human KB/VCR cells assessed as inhibition of cell growth at 25 uM incubated for 72 hrs by sulforhodamine B assay
- Assay type: cell-based
- Measurement Setup: read-out: GI
Record true whenever inhibition at 72 h, 25 µM is at 90% or higher; record false when lower.

Past entries and their recorded results:
CCCCCCCC(=O)O[C@H]1[C@H](O[C@@H]2[C@@H](O)[C@H]3OC(=O)CCCCCCCCC[C@H](CCCCC)O[C@@H]4O[C@H](C)[C@H](OC(C)=O)[C@H](O)[C@H]4O[C@@H]3O[C@H]2C)O[C@@H](C)[C@H](O[C@@H]2O[C@@H](C)[C@H](OC(=O)[C@@H](C)CC)[C@@H](O)[C@H]2O)[C@H]1O[C@@H]1O[C@H](CO)[C@@H](O)[C@H](O)[C@H]1O true
CCCCCCCCCC(=O)O[C@H]1[C@H](O[C@@H]2[C@@H](O)[C@H]3OC(=O)CCCCCCCCC[C@H](CCCCC)O[C@@H]4O[C@H](C)[C@H](OC(C)=O)[C@H](O)[C@H]4O[C@@H]3O[C@H]2C)O[C@@H](C)[C@H](O[C@@H]2O[C@@H](C)[C@H](OC(=O)[C@@H](C)CC)[C@@H](O)[C@H]2O)[C@H]1O[C@@H]1O[C@H](CO)[C@@H](O)[C@H](O)[C@H]1O true
CCCCC[C@H]1CCCCCCCCCC(=O)O[C@H]2[C@@H](O)[C@H](O[C@H]3[C@H](O1)O[C@H](C)[C@H](O)[C@@H]3O)O[C@@H](C)[C@@H]2O[C@@H]1O[C@@H](C)[C@H](O[C@@H]2O[C@@H](C)[C@H](O)[C@@H](O)[C@H]2O)[C@@H](O[C@@H]2O[C@H](CO)[C@@H](O)[C@H](O)[C@H]2O)[C@H]1OC(=O)[C@@H](C)CC false

Next item in the queue.
Confirm if inhibition at 72 h, 25 µM reported for the compound "CCCCC[C@@H](CCCCCCCCCC(=O)OC)O[C@@H]1O[C@H](C)[C@H](O)[C@H](O)[C@H]1O[C@@H]1O[C@@H](C)[C@H](O[C@@H]2O[C@@H](C)[C@H](O[C@@H]3O[C@@H](C)[C@H](OC(=O)[C@@H](C)CC)[C@@H](O)[C@H]3O)[C@@H](O[C@@H]3O[C@H](CO)[C@@H](O)[C@H](O)[C@H]3O)[C@H]2O)[C@@H](O)[C@H]1O" is 90% or above.
false
